# credit: patent US20240279281A1

Target: T1, interleukin-23 receptor (IL-23R), Q5VWK5
T1 chain: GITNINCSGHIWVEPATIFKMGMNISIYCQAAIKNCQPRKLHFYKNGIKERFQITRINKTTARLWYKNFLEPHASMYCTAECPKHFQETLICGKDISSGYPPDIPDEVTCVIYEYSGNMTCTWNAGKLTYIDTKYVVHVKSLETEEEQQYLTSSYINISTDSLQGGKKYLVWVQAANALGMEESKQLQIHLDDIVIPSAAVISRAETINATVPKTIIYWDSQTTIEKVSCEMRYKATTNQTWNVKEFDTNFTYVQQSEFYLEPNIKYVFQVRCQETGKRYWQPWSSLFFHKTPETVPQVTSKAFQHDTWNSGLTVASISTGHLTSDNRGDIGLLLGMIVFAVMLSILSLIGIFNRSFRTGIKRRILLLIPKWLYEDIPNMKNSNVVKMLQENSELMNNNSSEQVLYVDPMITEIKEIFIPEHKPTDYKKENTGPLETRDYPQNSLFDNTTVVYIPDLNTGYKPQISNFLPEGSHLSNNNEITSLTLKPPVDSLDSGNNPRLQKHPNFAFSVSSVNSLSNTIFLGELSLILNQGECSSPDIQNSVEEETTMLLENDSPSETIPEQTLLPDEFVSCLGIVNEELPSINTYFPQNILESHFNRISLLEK
Test: cell-based or functional assay
Positions of bridges follow the written chain, without caps; N, C: chain ends. Non-standard residues stand in square brackets, D forms with d. No end group written: not given here. 2Nal(6-OH) = N[C@@H](Cc1ccc2cc(O)ccc2c1)C(=O)O; Trp(7-Me) = Cc1cccc2c(C[C@H](N)C(=O)O)c[nH]c12; AEF = NCCOc1ccc(C[C@H](N)C(=O)O)cc1; 3Pal = N[C@@H](Cc1cccnc1)C(=O)O; Pen = CC(C)(S)[C@H](N)C(=O)O; Thp = NC1(C(=O)O)CCOCC1; Abu = CC[C@H](N)C(=O)O; Ava = NCCCCC(=O)O; Sar = CNCC(=O)O
# key: entry, value: IL23R Reporter Assay IC50

# BINDER, IL23R Reporter Assay IC50
records = [
    ("[Ava][Abu]NT[Trp(7-Me)]K(Ac)C[2‑amino‑3‑(4-(2-aminoethoxy)phenyl)propanoic acid][2‑amino‑3‑(6-hydroxynaphthalen-2-yl)propanoic acid][Thp]EN[3Pal][Sar] (ends and bridges not checked) [SEQ ID NO: 171]", "< 10 nM"),
    ("R[Pen]NT[Trp(7-Me)]K(Ac)[Pen][AEF][2Nal(6-OH)][Thp]EN[3Pal][Sar] (disulfide 2-7 (inferred); ends not checked) [SEQ ID NO: 94]", "< 10 nM"),
]
